Source listed as patent US20230414780A1.

Target: T1, rhesus monkey transferrin receptor (rhTfR) fused to EGFP, on CHO cells (rhesus monkey)
T1 construct: whole, on cells; also called rhesus monkey TfR
Test: apparent Kd, flow cytometry, CHO cells
pKd: −log10 of the molar value.
observationType: pKd

binder | dataValue
B8^V15 (VHH) VHH: EVQLVESGGGVVQPGGSLRLSCAASGEIFSINFMRWYRQAPGKQREWVAGFTRDDSTNYPDSAKGRFTISRDNAKNTVYLQIDSLKPEDTAVYYCYMLDTWGQGTQVTVSS | 8.37
B8^V11 (VHH) VHH: EVQLVESGGGVVQPGGSLRLSCAASDEIFSINFMRWYRQAPGKQREWVAGFTRDGSTNYPDSAKGRFTISRDNAKNTVYLQIDSLKPEDTAVYYCYMLDTWGQGTQVTVSS | 8.70
B8^V20 (VHH) VHH: EVQLVESGGGVVQPGGSLRLSCAASGEIFSINFMRWYRQAPGKQREWVAGFTRDGSHNYPDSAKGRFTISRDNAKNTVYLQIDSLKPEDTAVYYCYMLDTWGQGTQVTVSS | 8.74
VHH A3 (C5^V3) (VHH) VHH: EVQLVESGGGVVQPGGSLKLSCVASGTDFSINFIRWYRQAPGKQREFVAGFTAAGNTNYADSMKGRFTISRDNTKNAVYLQIDSLKPEDTAVYYCYMLDKWGQGTQVTVSS | 8.15
VHH A8 (C5^V8) (VHH) VHH: EVQLVESGGGVVQPGGSLKLSCVASGTDFSINFIRWYRQAPGKQREFVAGFTATGNTNYADSMKGRFTISRDNTKNAVYLQIDSLKPEDTAVYYCYMLAKWGQGTQVTVSS | 6.31
E8 (VHH) VHH: EVQLVESGGRLVQAGGSLRLSCTASGLAFSTHTMHWFRQAPGKEREFVGAIRWSDEDTEYADSVKGRFTISRDNAKSTVYLQMNNLKPEDTAVYYCAAARGVGTSGHMKYWGQGTQVTVSS | 8.68
B8^V12 (VHH) VHH: EVQLVESGGGVVQPGGSLRLSCAASGEIFYINFMRWYRQAPGKQREWVAGFTRDGSTNYPDSAKGRFTISRDNAKNTVYLQIDSLKPEDTAVYYCYMLDTWGQGTQVTVSS | 8.16
B8^V38 (VHH) VHH: EVQLVESGGGVVQPGGSLRLSCAASGEIRSINFMRWYRQAPGKQREWVAGFTRTGSTNYPDSAKGRFTISRDNAKNTVYLQIDSLKPEDTAVYYCYMLDTWGQGTQVTVSS | 6.91
C5^V23 (VHH) VHH: EVQLVESGGGVVQPGGSLKLSCVASGTDFSINFIRWYRQAPGKQREFVAGFTATGNTNYADSMKGRFTISRDNTKNAVYLQIDSLKPEDTAVYYCHMLDKWGQGTQVTVSS | 6.45
VHH D (H3) (VHH) VHH: EVQLVESGGGEVQPGGSLKLSCVASGTDFSINFVRWYRQRPGKQREWVAGFTANGDTNYPDSMKGRFTISRDNAKNTVYLQINSLKSEDTAVYYCYMLDNWGQGTQVTVSS | 8.82
B8^V39 (VHH) VHH: EVQLVESGGGVVQPGGSLRLSCAASGEIFKINFMRWYRQAPGKQREWVAGFTRDGSTNYPDSAKGRFTISRDNAKNTVYLQIDSLKPEDTAVYYCYMLDTWGQGTQVTVSS | 6.70
C5^h23 (VHH) VHH: EVQLVESGGGVVQPGGSLRLSCAASGTDFSINFIRWVRQAPGKQREFVAGFTATGNTNYADSVKGRFTISRDNAKNTLYLQMNSLRPEDTAVYYCYMLDKWGQGTQVTVSS | 5.70
C5^h24 (VHH) VHH: EVQLVESGGGVVQPGGSLRLSCAASGTDFSINFIRWYRQAPGKGLEFVAGFTATGNTNYADSMKGRFTISRDNAKNTLYLQMNSLRPEDTAVYYCYMLDKWGQGTQVTVSS | 6.19
C5^V20 (VHH) VHH: EVQLVESGGGVVQPGGSLKLSCVASGHDFSINFIRWYRQAPGKQREFVAGFTATGNTNYADSMKGRFTISRDNTKNAVYLQIDSLKPEDTAVYYCYMLDKWGQGTQVTVSS | 8.21
C5^h21 (VHH) VHH: EVQLVESGGGVVQPGGSLRLSCAASGTDFSINFIRWYRQAPGKGLEFVAGFTATGNTNYADSVKGRFTISRDNAKNTLYLQMNSLKPEDTAVYYCYMLDKWGQGTQVTVSS | 6.00
C5^h12 (VHH) VHH: EVQLVESGGGVVQPGGSLRLSCAASGTDFSINFIRWYRQAPGKGLEFVAGFTATGNTNYADSVKGRFTISRDNAKNTLYLQIDSLRPEDTAVYYCYMLDKWGQGTQVTVSS | 6.44
